target: T1, human IL-17A (human, UniProt Q16552 24-155); assay: SPR Biacore, captured binder
T1 construct: Purified recombinant; biotinylated in the ELISA; also called HuIL-17A; Hu IL-17A
T1 sequence (Q16552 24-155 limits assumed): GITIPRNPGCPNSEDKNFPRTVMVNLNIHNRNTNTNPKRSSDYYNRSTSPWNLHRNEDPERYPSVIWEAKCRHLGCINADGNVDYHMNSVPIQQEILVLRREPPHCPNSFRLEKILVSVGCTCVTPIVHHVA
quantity: Kd (nM)
Provide the reading as a plain figure in nM.

Q: Any idea what Kd was measured for IL17-B6-16 (antibody, V domains shown) VH: EVQLVQSGAEVKMPGSSLKISCKASGGSFRGYGISWVRQAPGQGLEWMGGITPFFGWADYAQKFQGRVTITADESTTTAYMELSGLTSDDTAVYYCARDPNEFWNGYYDTHHFDYWGQGTTVTVSS VL: EIVLTQSPDFQSVTPKEKVTITCRASQDIGSALHWYQQKPDQSPKLLIKYASHSVSGVPSRFSGSGSGTDFTLTINGLEAEDAGTYYCHQSDILPHTFGPGTKVDIK ?
Result: 0.00794

Q: Try IL17-TN-K7-B6 (antibody, V domains shown, Fully human antibody) VH: EVQLVQSGAEVKKPGESLKISCKASGGSFRSYGISWVRQAPGQGLEWMGGITPILGTANYAQKFQGRVTITADESTTTAYMELSGLTSDDTAVYYCAREPNDFWNGYYTTHHFDYWGQGTPVTVSS VL: DVVMTQSPDFQSVTPKEKVTITCRASQNIGSALHWYQQKPDQSPKLLIKYASQSISGVPSRFSGSGSGTDFTLTINGLEAEDAGTYYCHQSTSLPHTFGQGTKLDIKR next.
Result: 0.84
